experiment: The ability to displace [3H]colchicine binding to rat brain tubulin protein; set-up: concentration or dose not given beside the values; settings: concentration not given here
Quantity Kind: inhibition (%)
Write it as a number; the unit % goes unstated.

Can you look up the measured inhibition of COc1cc2c(c(OC)c1OC)-c1ccc(OC)c(=O)cc1[C@@H](NC(=O)COC(=O)C1CC(C)(C)N([O])C1(C)C)CC2 (stereo partly specified) for me?
60

Others:
I have this compound here, `COc1cc2c(c(OC)c1OC)-c1ccc(OC)c(=O)cc1[C@@H](NC(=O)[C@@H]1CC(C)(C)N([O])C1(C)C)CC2` , and I need its recorded inhibition.
0

Queued: `COc1cc2c(c(OC)c1OC)-c1ccc(OC)c(=O)cc1[C@@H](NC(=O)[C@H]1CC(C)(C)N([O])C1(C)C)CC2`
0

Try `COc1cc2c(c(OC)c1OC)-c1ccc(OC)c(=O)cc1[C@@H](NC(=O)COC(=O)[C@H]1CC(C)(C)N([O])C1(C)C)CC2` next.
65

Next: COc1c(COC(=O)C2CC(C)(C)N([O])C2(C)C)c2c(c(OC)c1OC)-c1ccc(OC)c(=O)cc1[C@@H](NC(C)=O)CC2 (stereo partly specified)
24

Do the same for `COc1cc2c(c(OC)c1OC)-c1ccc(OC)c(=O)cc1[C@@H](NC(=O)COC(=O)[C@@H]1CC(C)(C)N([O])C1(C)C)CC2` please
72
